# STUDY SYSTEM: β-secretase (BACE) (Homo sapiens, UniProt P56817)
# Construct: purchased Panvera
# Sequence (P56817 46-501): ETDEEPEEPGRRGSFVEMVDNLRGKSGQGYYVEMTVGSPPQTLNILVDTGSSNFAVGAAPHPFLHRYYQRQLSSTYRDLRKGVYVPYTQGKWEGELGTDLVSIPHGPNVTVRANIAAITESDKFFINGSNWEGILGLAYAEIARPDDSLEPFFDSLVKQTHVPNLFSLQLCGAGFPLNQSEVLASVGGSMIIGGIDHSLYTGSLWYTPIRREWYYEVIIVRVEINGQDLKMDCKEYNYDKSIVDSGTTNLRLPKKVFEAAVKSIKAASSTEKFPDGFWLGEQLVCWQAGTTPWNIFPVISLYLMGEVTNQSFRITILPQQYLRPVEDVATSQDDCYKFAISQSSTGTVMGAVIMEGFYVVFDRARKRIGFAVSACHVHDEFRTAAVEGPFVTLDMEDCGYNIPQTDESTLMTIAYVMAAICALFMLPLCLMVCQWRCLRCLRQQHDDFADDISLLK
# ASSAY INFO: BACE FS1% Inhibition Assay (Example 160)
# Format: biochemical
# CONDITIONS: 3 μM test compound; read-out: % Inhibition (FS)
QUANTITY MEASURED: inhibition at 3 µM (%)

# COMPOUND, inhibition at 3 µM / %
rows = [
    ("CCCCCC(CCC(=O)NC1CCCCCC1)N1Cc2cc(Oc3ccccc3)ccc2N=C1N (stereo not shown) [Compound 150]", 90),
    ("CCCC(CNC(=O)C12CC3CC(CC(C3)C1)C2)N1Cc2cc(Oc3ccccc3)ccc2N=C1N (stereo not shown) [Compound 602]", 121),
    ("NC1=Nc2ccc(Oc3ccccc3)cc2CN1C(CNC(=O)C12CC3CC(CC(C3)C1)C2)C1CCCCC1 (stereo not shown) [Compound 312]", 115),
    ("CCC[C@H](CNC(=O)CCC(C)C)N1Cc2cc(Oc3ccccc3)ccc2N=C1N [Compound 603]", 122),
]
